Target: α4β2 nicotinic receptor (Homo sapiens, UniProt P17787+P43681)
Sequence (P43681 29-627 limits assumed): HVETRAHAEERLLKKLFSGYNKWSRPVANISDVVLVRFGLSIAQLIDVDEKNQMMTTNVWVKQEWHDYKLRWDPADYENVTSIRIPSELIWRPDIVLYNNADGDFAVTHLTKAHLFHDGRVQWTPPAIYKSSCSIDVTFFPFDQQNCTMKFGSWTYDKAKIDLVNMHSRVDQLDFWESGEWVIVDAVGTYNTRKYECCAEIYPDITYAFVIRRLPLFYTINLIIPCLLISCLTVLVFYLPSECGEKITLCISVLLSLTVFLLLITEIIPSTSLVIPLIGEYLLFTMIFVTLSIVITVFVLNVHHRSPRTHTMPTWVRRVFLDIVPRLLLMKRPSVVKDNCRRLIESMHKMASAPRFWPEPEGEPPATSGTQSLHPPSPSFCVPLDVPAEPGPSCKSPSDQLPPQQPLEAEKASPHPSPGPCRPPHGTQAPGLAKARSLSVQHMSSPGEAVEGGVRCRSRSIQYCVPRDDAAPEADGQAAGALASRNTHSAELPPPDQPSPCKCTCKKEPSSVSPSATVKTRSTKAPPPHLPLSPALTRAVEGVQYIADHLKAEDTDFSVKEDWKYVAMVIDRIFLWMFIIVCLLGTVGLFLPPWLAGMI
Sequence (P17787 26-502): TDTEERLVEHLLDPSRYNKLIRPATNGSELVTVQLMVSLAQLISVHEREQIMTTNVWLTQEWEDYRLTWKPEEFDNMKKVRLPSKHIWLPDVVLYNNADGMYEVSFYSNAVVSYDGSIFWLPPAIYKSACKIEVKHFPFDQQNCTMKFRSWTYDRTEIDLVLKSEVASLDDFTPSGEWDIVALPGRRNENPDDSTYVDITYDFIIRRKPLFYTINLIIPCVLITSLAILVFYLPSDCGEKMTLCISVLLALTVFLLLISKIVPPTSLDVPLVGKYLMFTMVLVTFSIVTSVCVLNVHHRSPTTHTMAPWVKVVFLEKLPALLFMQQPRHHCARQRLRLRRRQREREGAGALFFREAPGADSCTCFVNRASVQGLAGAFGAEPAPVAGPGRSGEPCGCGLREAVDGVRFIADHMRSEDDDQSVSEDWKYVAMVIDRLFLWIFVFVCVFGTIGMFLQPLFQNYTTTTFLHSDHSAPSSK
Assay: Two-electrode voltage-clamp recording of ACh-induced currents in X. laevis oocytes expressing recombinant α4β2 nicotinic receptor
The compounds listed here are annotated with their IC50.

| Compound | Unit text | IC50 |
| --- | --- | --- |
| C#C/C=C\CCC[C@@H]1CC[C@@H](C)[C@@H]2CCCN12 [(-)-231C] | µM | 1.5 |
| C=CCC1CCC(CC)C2CCCN12 (single isomer, unassigned; (-)) [(-)-epi-193E] | µM | 18 |
| CCC=CCC1CCC(CC)C2CCCN12 (single isomer, unassigned; (-)) [(-)-221I] | µM | 23.1 |
